# Subject of test: Trx system (thioredoxin/thioredoxin reductase) (Homo sapiens)
# Measurement protocol: Thioredoxin/thioredoxin reductase insulin reduction assay
# Type: biochemical
Metric name: pIC50
Just the number, please; pIC50 means minus log10 of the concentration in mol/L.

Please fill in: pIC50 reported for COC(=O)c1ccc(NS(=O)(=O)c2ccc([N+](=O)[O-])cc2)c(NS(=O)(=O)c2ccc([N+](=O)[O-])cc2)c1 [(19a)] = 3.32

---

# Subject of test: Trx system (thioredoxin/thioredoxin reductase) (Homo sapiens, UniProt Q16881)
# Sequence (Q16881 151-649 limits assumed): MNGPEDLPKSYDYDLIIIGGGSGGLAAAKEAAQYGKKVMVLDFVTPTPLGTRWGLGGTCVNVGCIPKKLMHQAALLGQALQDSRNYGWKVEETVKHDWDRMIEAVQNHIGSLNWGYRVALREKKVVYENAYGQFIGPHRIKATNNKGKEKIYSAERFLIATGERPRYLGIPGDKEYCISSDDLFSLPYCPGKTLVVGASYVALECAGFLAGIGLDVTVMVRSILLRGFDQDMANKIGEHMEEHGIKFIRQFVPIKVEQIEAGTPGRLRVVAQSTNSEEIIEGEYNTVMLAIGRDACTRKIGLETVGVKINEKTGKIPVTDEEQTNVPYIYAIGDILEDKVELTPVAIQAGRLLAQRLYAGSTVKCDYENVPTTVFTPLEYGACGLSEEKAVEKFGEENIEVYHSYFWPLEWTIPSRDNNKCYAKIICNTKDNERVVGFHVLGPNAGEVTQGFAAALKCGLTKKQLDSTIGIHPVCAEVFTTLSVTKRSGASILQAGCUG
# Measurement protocol: Thioredoxin/thioredoxin reductase insulin reduction assay
# Type: biochemical
# Experimental parameters: compound at 500 μM; read-out: Inhib. (%) Trx Syst. at 500 μM
Metric name: inhibition at 500 µM (%)
# number only, unit % dropped from output

Record excerpt, results attached:
- Cc1ccc(S(=O)(=O)Nc2ccc(NS(N)(=O)=O)cc2NS(=O)(=O)c2ccc(C)cc2)cc1 [(33c)]: 38.6
- COC(=O)c1ccc(NS(=O)(=O)c2ccc(OC)cc2)c(NS(=O)(=O)c2ccc(OC)cc2)c1 [(19d)]: 14.6

Noted for Cc1ccc(S(=O)(=O)Nc2ccc(NC(=O)Nc3ccccc3)cc2NS(=O)(=O)c2ccc(C)cc2)cc1 [(33e)] : its inhibition at 500 µM reads 0

For record C=CC(=O)Nc1ccc(NS(=O)(=O)c2ccc(C)cc2)c(NS(=O)(=O)c2ccc(C)cc2)c1 [(39)] the listed inhibition at 500 µM is 73.9

Value of inhibition at 500 µM reported for the compound Cc1ccc(S(=O)(=O)Nc2ccc(CO)cc2NS(=O)(=O)c2ccc(C)cc2)cc1 [(36)] is 50

Quick note, inhibition at 500 µM for COC(=O)c1ccc(NS(=O)(=O)c2ccc(C(F)(F)F)cc2)c(NS(=O)(=O)c2ccc(C(F)(F)F)cc2)c1 [(19b)] landed at 33.4

Data origin: patent US9856230B2
